# reported ratio to parent; entries follow
B1: H2-Kb / Ed21 (parent complex)
chain 1: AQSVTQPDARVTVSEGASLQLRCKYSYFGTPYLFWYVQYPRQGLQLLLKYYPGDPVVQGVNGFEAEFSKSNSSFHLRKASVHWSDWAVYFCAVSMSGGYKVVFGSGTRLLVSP
chain 2: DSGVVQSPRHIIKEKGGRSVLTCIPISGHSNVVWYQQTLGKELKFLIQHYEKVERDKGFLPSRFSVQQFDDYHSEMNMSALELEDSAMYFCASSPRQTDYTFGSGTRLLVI
chain 3: not shown
chain 4: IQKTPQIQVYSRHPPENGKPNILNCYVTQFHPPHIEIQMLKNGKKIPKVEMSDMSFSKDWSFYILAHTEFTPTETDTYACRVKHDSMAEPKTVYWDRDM
chain 5: SIINFEKL

variants of: B1; test: % of reporter cells activated (NFAT-GFP), raw; further: test concentration or dose not given here
Assay endpoint: ratio to parent

> print(dat)
    mutation.id  result.number
 1  chain 5 I2P          0.975
 2  chain 5 E6L          0.329
 3  chain 5 K7N          0.706
 4  chain 5 L8S           0.78
 5  chain 5 E6P          0.554
 6  chain 5 E6C         0.0832
 7  chain 5 E6K          0.949
 8  chain 5 K7H          0.997
 9  chain 5 L8W          0.734
10  chain 5 L8N          0.888
11  chain 5 E6Y          0.366
12  chain 5 F5T          0.964
13  chain 5 S1R          0.785
14  chain 5 E6T           0.46
15  chain 5 S1P          0.808
16  chain 5 I2Q          0.904
17  chain 5 S1T          0.927
18  chain 5 I3V          0.872
19  chain 5 E6H           0.59
20  chain 5 I2D          0.924
21  chain 5 F5K          0.952
22  chain 5 E6N          0.884
